# Tested on: N. gonorrhoeae WHO Z
# experiment_description: Liquid broth MIC in Fastidious broth
# condition_label: Neisseria gonorrhoeae, read-out: Minimum Inhibitory Concentration (MIC), N. gonorrhoeae WHO Z
I'd be grateful if you could share measured MIC for these entries.

The following molecules have reported results that may help.
O=C1CC[C@@H](C(=O)NC(C(=O)N[C@H]2Cc3cccc(C(=O)O)c3OB2O)c2ccc(P(=O)(O)O)cc2)N1 (stereo partly drawn) :: 4 to 8 µg/mL
CS(=O)(=O)N1CCC[C@@H]1C(=O)N[C@@H](C(=O)N[C@H]1Cc2cccc(C(=O)O)c2OB1O)c1ccc(P(=O)(O)O)cc1 :: 4 to 8 µg/mL
CN(CCN1CCN(C(=O)NC(C(=O)N[C@H]2Cc3ccc(F)c(C(=O)O)c3OB2O)c2cc(F)c(O)c(O)c2Cl)C(=O)C1=O)S(=O)(=O)c1cccc(C(N)=O)c1 (stereo partly drawn) :: > 64 µg/mL
O=C(NC(C(=O)N[C@H]1Cc2cccc(C(=O)O)c2OB1O)c1ccc(P(=O)(O)O)cc1)c1ccccn1 (stereo partly drawn) :: 1 to 2 µg/mL
O=C(NCCN1CCN(C(=O)NC(C(=O)N[C@H]2Cc3ccc(F)c(C(=O)O)c3OB2O)c2cc(F)c(O)c(O)c2Cl)C1=O)c1cccc(O)c1 (stereo partly drawn) :: > 64 µg/mL

Recorded MIC for CS(=O)(=O)N1CCN(C(=O)N[C@@H](C(=O)N[C@H]2Cc3ccc(F)c(C(=O)O)c3OB2O)c2ccc(P(=O)(O)O)c(F)c2)C1=O (single isomer, unassigned) , please?
< 1 µg/mL

---

# test_system: A. baumannii PBP1a (Acinetobacter baumannii)
# Sequence (A0ABX6CK30 1-851): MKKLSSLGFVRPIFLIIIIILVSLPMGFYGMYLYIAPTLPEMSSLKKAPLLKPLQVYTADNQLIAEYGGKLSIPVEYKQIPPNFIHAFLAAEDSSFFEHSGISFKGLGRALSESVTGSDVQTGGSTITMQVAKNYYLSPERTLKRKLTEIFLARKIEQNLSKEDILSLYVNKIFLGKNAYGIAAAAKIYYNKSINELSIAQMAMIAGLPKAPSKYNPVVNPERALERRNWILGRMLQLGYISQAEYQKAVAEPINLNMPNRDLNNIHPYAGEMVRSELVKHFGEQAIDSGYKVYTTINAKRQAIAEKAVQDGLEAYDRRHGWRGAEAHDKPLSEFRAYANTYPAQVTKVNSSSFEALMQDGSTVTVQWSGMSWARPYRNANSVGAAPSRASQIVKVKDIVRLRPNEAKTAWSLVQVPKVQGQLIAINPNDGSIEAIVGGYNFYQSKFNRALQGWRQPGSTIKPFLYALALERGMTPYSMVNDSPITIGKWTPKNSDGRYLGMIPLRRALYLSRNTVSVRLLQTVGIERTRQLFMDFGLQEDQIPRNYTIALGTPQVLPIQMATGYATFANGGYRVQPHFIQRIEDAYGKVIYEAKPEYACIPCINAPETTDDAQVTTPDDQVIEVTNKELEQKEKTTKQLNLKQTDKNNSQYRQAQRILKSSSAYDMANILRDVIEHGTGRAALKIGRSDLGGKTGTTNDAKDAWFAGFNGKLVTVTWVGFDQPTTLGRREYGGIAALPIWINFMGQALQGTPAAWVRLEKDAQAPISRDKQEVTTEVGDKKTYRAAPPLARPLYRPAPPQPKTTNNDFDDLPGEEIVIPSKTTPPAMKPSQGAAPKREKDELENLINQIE
# experiment_description: Bocillin-FL competition binding via gel filtration, A. baumannii PBP1a
# condition_label: competition binding assay using Bocillin-FL via gel filtration; read-out: A. baumannii PBP1a Potency
# Description: Affinity to A. baumannii PBP1a and PBP2 was assessed a competitive equilibrium binding assay using Bocillin-FL as the reporter molecule. Enzyme was pre-incubated with increasing concentrations of inhibitors, prior to addition of Bocillin and further incubation for 15 minutes. PBP bound with Bocillin-FL was separated by gel filtration using 96-well Zeba Spin size exclusion plates, and the fluorescence measured. […]
observed_property: EC50

The following molecules have reported results that may help.
O=C(NCCCN1CCN(C(=O)NC(C(=O)N[C@H]2Cc3ccc(F)c(C(=O)O)c3OB2O)c2cc(F)c(O)c(O)c2Cl)C(=O)C1=O)c1c(F)cc(O)cc1Cl (some centres unmarked) [Example 421] :: < 10 µM
O=C(NCCN1CCN(C(=O)NC(C(=O)N[C@H]2Cc3ccc(F)c(C(=O)O)c3OB2O)c2cc(F)c(O)c(O)c2Cl)C1=O)Nc1cccc(O)c1 (some centres unmarked) [Example 249] :: 10 to 50 µM
O=C(NCCCN1CCN(C(=O)NC(C(=O)N[C@H]2Cc3ccc(F)c(C(=O)O)c3OB2O)c2cc(F)c(O)c(O)c2Cl)C1=O)Nc1ccncc1 (some centres unmarked) [Example 285] :: 10 to 50 µM
O=C(O)c1c(F)ccc2c1OB(O)[C@@H](NC(=O)[C@H](NC(=O)N1CCN(Cc3ccc(O)c(O)c3Cl)C(=O)C1=O)c1cccc(P(=O)(O)O)c1)C2 (single isomer, unassigned) [Example 163] :: < 10 µM

Proceeding to the next molecule to report its EC50.
Missing value: EC50, A. baumannii PBP1a (Acinetobacter baumannii), entry Cc1cc(C(=O)NCCCN2CCN(C(=O)N[C@@H](C(=O)N[C@H]3Cc4ccc(F)c(C(=O)O)c4OB3O)c3cc(F)c(O)c(O)c3Cl)C(=O)C2=O)ccn1 [Example 298] . Fill in?
10 to 50 µM
